target: UniProtKB Q14123; assay: PDE1 inhibition assay (PDE1C), SPA with tritium labelled cAMP; assay type: biochemical; details: 15 nM tritium labelled cAMP, 1 hr at room temperature, SPA beads
Sequence (Q14123 whole entry): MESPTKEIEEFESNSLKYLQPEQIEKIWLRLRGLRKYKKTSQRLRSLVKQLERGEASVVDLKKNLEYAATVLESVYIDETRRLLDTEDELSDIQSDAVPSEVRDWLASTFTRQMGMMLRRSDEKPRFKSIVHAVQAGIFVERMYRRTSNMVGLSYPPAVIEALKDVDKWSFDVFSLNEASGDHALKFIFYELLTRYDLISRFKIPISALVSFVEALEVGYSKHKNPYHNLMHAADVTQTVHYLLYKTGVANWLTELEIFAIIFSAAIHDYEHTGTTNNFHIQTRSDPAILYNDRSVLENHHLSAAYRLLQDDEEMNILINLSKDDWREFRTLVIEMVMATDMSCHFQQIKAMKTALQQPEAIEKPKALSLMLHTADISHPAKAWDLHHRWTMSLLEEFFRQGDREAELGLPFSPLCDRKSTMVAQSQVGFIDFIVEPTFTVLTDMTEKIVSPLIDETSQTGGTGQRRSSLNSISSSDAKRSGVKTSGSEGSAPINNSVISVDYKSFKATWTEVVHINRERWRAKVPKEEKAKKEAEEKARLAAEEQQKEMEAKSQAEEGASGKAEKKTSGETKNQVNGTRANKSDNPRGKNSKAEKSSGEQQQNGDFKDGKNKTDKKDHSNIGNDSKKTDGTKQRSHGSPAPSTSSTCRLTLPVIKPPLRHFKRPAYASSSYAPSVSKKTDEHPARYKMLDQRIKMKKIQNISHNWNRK
pIC50: −log10 of the molar value.
Binary classification by pIC50, with 8 as an inclusive lower bound for met; all other cases are not met.

cpdsmiles=CCOc1nnccc1-c1cc(NCc2ncn(C)n2)c2c(C(C)C)nn(C)c2n1 categorylabel="not met"
cpdsmiles=CCOc1ncccc1-c1cc(NCc2cncc(OC)c2)c2c(C(C)C)nn(C)c2n1 categorylabel="not met"
cpdsmiles=CCOc1ncccc1-c1cc(NCc2ncccn2)c2c(C(C)C)nc(C)n2n1 categorylabel="not met"
cpdsmiles=CCCOc1ncccc1-c1cc(NCc2ncn(C)n2)c2c(C(C)C)nn(C)c2n1 categorylabel=met
cpdsmiles=CCOc1ncccc1-c1cc(NCc2cnc(C)o2)c2c(C(C)C)nn(C)c2n1 categorylabel="not met"
cpdsmiles=Cc1csc(-c2cc(NCc3ncn(C)n3)c3c(C(C)C)nn(C)c3n2)n1 categorylabel="not met"
cpdsmiles=CCOc1ncccc1-c1cc(NCc2coc(C)n2)c2c(C(C)C)nn(C)c2n1 categorylabel="not met"
cpdsmiles=COc1ncncc1-c1cc(NCc2ncn(C)n2)c2c(C(C)C)nn(C)c2n1 categorylabel=met
